Biological target: T1, SRSF1 RS (human, UniProt Q07955 199-248)
T1 chain: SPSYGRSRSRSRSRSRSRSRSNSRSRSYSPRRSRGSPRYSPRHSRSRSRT
Assay: FP; FP, 10 nM RNA, 37 C 30 min then 25 C 10 min; 21-mers: 25 mM KCl, 0.25 M Arg/Glu, 20 mM Tris-HCl pH 7.5, 0.1 mM EDTA, 0.1 mM TCEP, 0.02% Tween 20; 8-mers: 35 mM
Conditions: protein: recombinant; tags: none (SUMO cleaved); label: 5' fluorescein
pKd: −log10 of the molar value.
REPORTED_ENDPOINT: pKd

CUCUCUCUCUCUCUCUCUCUC (ssRNA) [21-mer CU] | 5.85
GAGAGAGAGAGAGAGAGAGAG (ssRNA) [21-mer GA] | 6.68
